Tested on: HeLa Kyoto;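 also: synchronized HeLa Kyoto cells (double thymidine block for G1/S, nocodazole release for mitosis), protein amounts in NP-40 versus SDS lysates quantified by mass spectrometry, three biological replicates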
Assay: solubility change mitosis vs G1/S (difference of NP-40 vs SDS log2 ratios) (log2 ratio difference); higher = more soluble in mitosis
yes means recorded solubility change mitosis (log2) is -0.1 or above; no means it is below -0.1.

Problem: API: above_or_equal(metric=solubility change mitosis (log2), cutoff=-0.1) for item MELIQDTSRPPLEYVKGVPLIKYFAEALGPLQSFQARPDDLLINTYPKSGTTWVSQILDMIYQGGDLEKCNRAPIYVRVPFLEVNDPGEPSGLETLKDTPPPRLIKSHLPLALLPQTLLDQKVKVVYVARNPKDVAVSYYHFHRMEKAHPEPGTWDSFLEKFMAGEVSYGSWYQHVQEWWELSRTHPVLYLFYEDMKENPKREIQKILEFVGRSLPEETMDFMVQHTSFKEMKKNPMTNYTTVPQELMDHSISPFMRKGMAGDWKTTFTVAQNERFDADYAEKMAGCSLSFRSEL [SULT1A3]
Result: no

Problem: Then MAAPEAPPLDRVFRTTWLSTECDSHPLPPSYRKFLFETQAADLAGGTTVAAGNLLNESEKDCGQDRRAPGVQPCRLVTMTSVVKTVYSLQPPSALSGGQPADTQTRATSKSLLPVRSKEVDVSKQLHSGGPENDVTKITKLRRENGQMKATDTATRRNVRKGYKPLSKQKSEEELKDKNQLLEAVNKQLHQKLTETQGELKDLTQKVELLEKFRDNCLAILESKGLDPALGSETLASRQESTTDHMDSMLLLETLQEELKLFNETAKKQMEELQALKVKLEMKEERVRFLEQQTLCNNQVNDLTTALKEMEQLLEM [KNSTRN] ?
Result: yes

Problem: Then MADKQISLPAKLINGGIAGLIGVTCVFPIDLAKTRLQNQQNGQRVYTSMSDCLIKTVRSEGYFGMYRGAAVNLTLVTPEKAIKLAANDFFRHQLSKDGQKLTLLKEMLAGCGAGTCQVIVTTPMEMLKIQLQDAGRIAAQRKILAAQGQLSAQGGAQPSVEAPAAPRPTATQLTRDLLRSRGIAGLYKGLGATLLRDVPFSVVYFPLFANLNQLGRPASEEKSPFYVSFLAGCVAGSAAAVAVNPCDVVKTRLQSLQRGVNEDTYSGILDCARKILRHEGPSAFLKGAYCRALVIAPLFGIAQVVYFLGIAESLLGLLQDPQA [SLC25A22] ?
Result: no

Problem: Then MEMKKKINLELRNRSPEEVTELVLDNCLCVNGEIEGLNDTFKELEFLSMANVELSSLARLPSLNKLRKLELSDNIISGGLEVLAEKCPNLTYLNLSGNKIKDLSTVEALQNLKNLKSLDLFNCEITNLEDYRESIFELLQQITYLDGFDQEDNEAPDSEEEDDEDGDEDDEEEEENEAGPPEGYEEEEEEEEEEDEDEDEDEDEAGSELGEGEEEVGLSYLMKEEIQDEEDDDDYVEEGEEEEEEEEGGLRGEKRKRDAEDDGEEEDD [ANP32E] ?
Result: yes

Problem: Then ARFGAP2 ?
Result: no

Problem: Then MPLLTQQIQDEDDQYSLVASLDNVRNLSTILKAIHFREHATCFATKNGIKVTVENAKCVQANAFIQAGIFQEFKVQEESVTFRINLTVLLDCLSIFGSSPMPGTLTALRMCYQGYGYPLMLFLEEGGVVTVCKINTQEPEETLDFDFCSTNVINKIILQSEGLREAFSELDMTSEVLQITMSPDKPYFRLSTFGNAGSSHLDYPKDSDLMEAFHCNQTQVNRYKISLLKPSTKALVLSCKVSIRTDNRGFLSLQYMIRNEDGQICFVEYYCCPDEEVPESES [RAD1] ?
Result: no
